Test system: MS2 coat protein
Experiment: apparent KD of MS2 coat protein; designed switch direction (-1 OFF switch, 1 ON switch): 1; higher = weaker reporter binding
Settings: input ligand: none
Quick list: apparent KD of MS2 coat protein per entry.

[
  {
    "residueCodes": "AACGUGUAGGAAGGAUAUAUUGUUCAAGGGAUUGCAAUCUCUAACAUGAGGAUCACCCAUGUAGAGUAGAAGGUCCACCGCAGG [Eternabot solution 40] (Eterna round: R96, puzzle: Same State NG 2)",
    "unitInfo": "nM",
    "apparent KD of MS2 coat protein": 19.2
  },
  {
    "residueCodes": "UAAGUAUGUUGAGGAUAUUAUGUUUAGUGUGAUGACAUGAGGAUCACCCAUGUGUUAUGAGUUUUUAAGAAGGCAACAUACUUA [JR_SSNG2_Sub091] (Eterna round: R96, puzzle: Same State NG 2)",
    "unitInfo": "nM",
    "apparent KD of MS2 coat protein": 55.2
  },
  {
    "residueCodes": "GGUCGGAACCACAUGAGGAUCACCCAUGUUCCGGAAACGGCGCAGGAUAUCUGUCCGAAAAGGUCAGAGAAGGGUGAACCGACC [Fiskers NG3ss - 78] (Eterna round: R96, puzzle: Same State NG 3)",
    "unitInfo": "nM",
    "apparent KD of MS2 coat protein": 236
  },
  {
    "residueCodes": "GGUAGGUUACUACCAAUCUACAUGAGGAUCACCCAUGUGUAGGAGGAUAUGGUACCUAUUUGGUACCAGAAGGCCUAAUUAAUU [Fiskers NG3ss - 9] (Eterna round: R96, puzzle: Same State NG 3)",
    "unitInfo": "nM",
    "apparent KD of MS2 coat protein": 111
  },
  {
    "residueCodes": "ACAUGAGAUUGAGGAUAUAUUGUACCUACAUGUGACAUGAGGAUCACCCAUGUGGUAAGUAUGACAUAGAAGGCAAAGAUAUGU [Equivalance 81 - Jieux - Same State NG 2] (Eterna round: R96, puzzle: Same State NG 2)",
    "unitInfo": "nM",
    "apparent KD of MS2 coat protein": 74.4
  },
  {
    "residueCodes": "UUGCGCUGUCGAGAGGAUAUGCGGUGUUGGACAUGAGGAUCACCCAUGUUAGCGAUUGCUUUACGGUAGAAGGCUCUUCAGCUGC [salish99_ss2_r3_098] (Eterna round: R96, puzzle: Same State 2)",
    "unitInfo": "nM",
    "apparent KD of MS2 coat protein": 82.8
  },
  {
    "residueCodes": "GCGAAGAGGUAAGGAUAUUCAUGGCAUAGACAUGAGGAUCACCCAUGUAGGAGACGAAUUAGAAGGAAGAAGGUACCAGGACGC [AK SSNG2-V2-18] (Eterna round: R96, puzzle: Same State NG 2)",
    "unitInfo": "nM",
    "apparent KD of MS2 coat protein": 187
  },
  {
    "residueCodes": "CGAAAGAGGUGAGGAUAUGCAGAGGAUCACCCUGUAGAAGGCAUCAGGUGAGGAUAUGCAGAGGAUCACCCUGUAGAAGGCAUC [pwkr ssNG DX.12] (Eterna round: R96, puzzle: Same State NG 1)",
    "unitInfo": "nM",
    "apparent KD of MS2 coat protein": 596
  },
  {
    "residueCodes": "UUAAUUUACUGAGGAUAUCGUGUCGACUGAGUUGACAUGAGGAUCACCCAUGUGAGAAGUGGUAUCGAGAAGGCAGUUUUCAUA [JR_SSNG2_Sub024] (Eterna round: R96, puzzle: Same State NG 2)",
    "unitInfo": "nM",
    "apparent KD of MS2 coat protein": 89.6
  },
  {
    "residueCodes": "CGUCGUUUGAUAGGAUAUCGCUUUCCAUGAGGAUCACCCAUGUUUACCACGCUGGUUUUUCUUUCCGAGAAGGAUUCUGAUGUU [salish99_SSNG02_r04_025] (Eterna round: R96, puzzle: Same State NG 2)",
    "unitInfo": "nM",
    "apparent KD of MS2 coat protein": 153
  },
  {
    "residueCodes": "UUCACCUUUUUUAACAUGAGGAUCACCCAUGUAUAUUGUACGUAGGAUAUCGAUGCUUUUUUUUUCGAGAAGGACGAUGUAAGU [JR_SSND3_Sub051] (Eterna round: R96, puzzle: Same State NG 3)",
    "unitInfo": "nM",
    "apparent KD of MS2 coat protein": 37.5
  },
  {
    "residueCodes": "AGCUAUUAAUCAGGAUAUGGUCACAUGAGGAUCACCCAUGUAUAGAUGAUUAAAUGUGGUCUAAACUAGAAGGGAUUGCUAACA [SameState NG2 #56] (Eterna round: R96, puzzle: Same State NG 2)",
    "unitInfo": "nM",
    "apparent KD of MS2 coat protein": 421
  },
  {
    "residueCodes": "GCACAUGAGGAUCACCCAUGUGCGCUUGAUUGUCCAAGCGCACAGGAUAUACCUCCAAAUGGGAGGUAGAAGGGUGAAAAGAAA [Ravema] (Eterna round: R96, puzzle: Same State NG 3)",
    "unitInfo": "nM",
    "apparent KD of MS2 coat protein": 347
  },
  {
    "residueCodes": "UUUAGUUGCGGGCAGGAUAUGUAUUAAAAUACAUGAGGAUCACCCAUGUGCGGGUAUAACACCCGACAGAAGGGCCAAUCGCGAC [Laonerce] (Eterna round: R96, puzzle: Same State 2)",
    "unitInfo": "nM",
    "apparent KD of MS2 coat protein": 278
  },
  {
    "residueCodes": "AUGAAGAAUUAAGGAUAUUGAUUACAUAUGUUUAACAUGAGGAUCACCCAUGUGGGUUGCGGUAUCGAGAAGGUAAAUUACAAG [Mat - same State NG 2 - JL mod - D87] (Eterna round: R96, puzzle: Same State NG 2)",
    "unitInfo": "nM",
    "apparent KD of MS2 coat protein": 187
  },
  {
    "residueCodes": "UGAUGCCCAUCAGGAUAUGGGCCCAUGAGGAUCACCCAUGUAAAGUAGGUCCAACAGGGCCAAGUCUAGAAGGGAUGGCGGGCA [malcolm 80 ssNG2 F5+F7.1] (Eterna round: R96, puzzle: Same State NG 2)",
    "unitInfo": "nM",
    "apparent KD of MS2 coat protein": 190
  },
  {
    "residueCodes": "CAGCGCUGUCGAGAGGAUAUGCGGUGAUGGACAUGAGGAUCACCCAUGUUAGCGACAGCAUCACGGCAGAAGGCUCUACCGCUGC [Soteed Omei mod 18] (Eterna round: R96, puzzle: Same State 2)",
    "unitInfo": "nM",
    "apparent KD of MS2 coat protein": 60.7
  },
  {
    "residueCodes": "AUUACUAACAUAGGAUAUCAUGCGAAAAUUGCGUGAGAAGGGUGGACGCUGUCAUUCACGGAGGACAUGAGGAUCACCCAUGUC [SameState NG1 #72] (Eterna round: R96, puzzle: Same State NG 1)",
    "unitInfo": "nM",
    "apparent KD of MS2 coat protein": 143
  }
]

The origin of these recorded values is the supplement of paper PMC9170038.
